Test system: pooled human cryopreserved hepatocytes (pHHeps)
test summary: Metabolic stability, pooled human cryopreserved hepatocyte incubations
condition label: pHHeps, 3 min
Rule for this label: class 1 means % parent compound remaining, Average is less than 70%; class 0 means % parent compound remaining, Average is at least 70%.

The following compounds have reported results that may help.
compound="COC(=O)[C@H](NC(=O)c1cn(CCCCCF)c2ccccc12)C(C)(C)C [(R)-5F-MDMB-PICA (3)]" classification="class 0"
compound="C=CCCCn1cc(C(=O)N[C@@H](C(=O)OC)C(C)(C)C)c2ccccc21 [(R)-MDMB-4en-PICA (12)]" classification="class 0"
compound="C=CCCCn1cc(C(=O)N[C@H](C(=O)OC)C(C)(C)C)c2ccccc21 [(S)-MDMB-4en-PICA (12)]" classification="class 0"
compound="COC(=O)[C@H](NC(=O)c1nn(CCCCF)c2ccccc12)C(C)(C)C [(R)-4F-MDMB-BINACA (4)]" classification="class 0"
compound="O=c1ccc2ccc(O)cc2o1 [7-hydroxycoumarin, reference compound]" classification="class 0"

Alright, here's another compound for you.
Exercise: Does the reported % parent compound remaining, Average of COC(=O)[C@@H](NC(=O)c1nn(CCCCCF)c2ccccc12)C(C)C [(S)-5F-AMB-PINACA (10)] stay below 70%?
Solution: class 1

* * *

test summary: Metabolic stability, pooled human liver microsome incubations
condition label: from pHLM incubations
property: Hepatic extraction ratio, EH
The answer should be written as a number, with no unit following it.

Study these solved cases before continuing.
compound="C=CCCCn1cc(C(=O)N[C@@H](C(=O)OC)C(C)C)c2ccccc21 [(R)-AMB-4en-PICA (7)]" property="Hepatic extraction ratio, EH" endpoint_value=0.56
compound="CC(C)[C@H](NC(=O)c1nn(CC2CCCCC2)c2ccccc12)C(N)=O [(S)-AB-[…] (11)]" property="Hepatic extraction ratio, EH" endpoint_value=0.08
compound="COC(=O)[C@@H](NC(=O)c1nn(CCCCCF)c2ccccc12)C(C)(C)C [(S)-5F-MDMB-PINACA (2)]" property="Hepatic extraction ratio, EH" endpoint_value=0.23
compound="C=CCCCn1cc(C(=O)N[C@@H](C(=O)OC)C(C)(C)C)c2ccccc21 [(R)-MDMB-4en-PICA (12)]" property="Hepatic extraction ratio, EH" endpoint_value=0.47
compound="C=CCCCn1cc(C(=O)N[C@H](C(=O)OC)C(C)C)c2ccccc21 [(S)-AMB-4en-PICA (7)]" property="Hepatic extraction ratio, EH" endpoint_value=0.44

Exercise: Note Hepatic extraction ratio, EH for the compound shown: COC(=O)[C@@H](NC(=O)c1cn(CCCCCF)c2ccccc12)C(C)(C)C [(S)-5F-MDMB-PICA (3)]
Solution: 0.38

Exercise: Note Hepatic extraction ratio, EH for the compound shown: COC(=O)[C@H](NC(=O)c1cn(CCCCCF)c2ccccc12)C(C)(C)C [(R)-5F-MDMB-PICA (3)]
Solution: 0.34

Exercise: Note Hepatic extraction ratio, EH for the compound shown: C=CCCCn1nc(C(=O)N[C@@H](C(=O)OC)C(C)(C)C)c2ccccc21 [(R)-MDMB-4en-PINACA (5)]
Solution: 0.24

Exercise: Note Hepatic extraction ratio, EH for the compound shown: C=CCCCn1nc(C(=O)N[C@H](C(=O)OC)C(C)(C)C)c2ccccc21 [(S)-MDMB-4en-PINACA (5)]
Solution: 0.13

Exercise: Note Hepatic extraction ratio, EH for the compound shown: C=CCCCn1cc(C(=O)N[C@H](C(=O)OC)C(C)(C)C)c2ccccc21 [(S)-MDMB-4en-PICA (12)]
Solution: 0.27

Exercise: Note Hepatic extraction ratio, EH for the compound shown: COC(=O)[C@@H](NC(=O)c1nn(CCCCF)c2ccccc12)C(C)(C)C [(S)-4F-MDMB-BINACA (4)]
Solution: 0.36

Exercise: Note Hepatic extraction ratio, EH for the compound shown: COC(=O)[C@@H](NC(=O)c1nn(Cc2ccc(F)cc2)c2ccccc12)C(C)(C)C [(S)-MDMB-FUBINACA (6)]
Solution: 0.04

Exercise: Note Hepatic extraction ratio, EH for the compound shown: COC(=O)[C@H](NC(=O)c1nn(CCCCCF)c2ccccc12)C(C)(C)C [(R)-5F-MDMB-PINACA (2)]
Solution: 0.31

Exercise: Note Hepatic extraction ratio, EH for the compound shown: COC(=O)[C@@H](NC(=O)c1cn(CC2CCCCC2)c2ccccc12)C(C)C [(S)-AMB-CHMICA (9)]
Solution: 0.21

Exercise: Note Hepatic extraction ratio, EH for the compound shown: COC(=O)[C@@H](NC(=O)c1nn(Cc2ccc(F)cc2)c2ccccc12)C(C)C [(S)-AMB-FUBINACA (1)]
Solution: 0.73

Exercise: Note Hepatic extraction ratio, EH for the compound shown: COC(=O)[C@H](NC(=O)c1nn(CCCCF)c2ccccc12)C(C)(C)C [(R)-4F-MDMB-BINACA (4)]
Solution: 0.41

* * *

Overview of recorded log10 of half-life at 0.5 µM for various compounds
test summary: Metabolic stability, pooled human cryopreserved hepatocyte incubations
condition label: human, hepatocytes, T1/2 (min), pHHeps 0.25 million cells mL^−1, 0.5 µM, 37 °C, n ≥ 3 ± SD
Lab note - half-life at 0.5 µM converted to log10 from values in min.

Study these solved cases before continuing.
compound="C=CCCCn1nc(C(=O)N[C@@H](C(=O)OC)C(C)(C)C)c2ccccc21 [(R)-MDMB-4en-PINACA (5)]" endpoint_value=1.34
compound="COC(=O)[C@@H](NC(=O)c1nn(Cc2ccc(F)cc2)c2ccccc12)C(C)C [(S)-AMB-FUBINACA (1)]" endpoint_value=0.40
compound="CC(C)[C@H](NC(=O)c1nn(CC2CCCCC2)c2ccccc12)C(N)=O [(S)-AB-[…] (11)]" endpoint_value=1.59
compound="COC(=O)[C@@H](NC(=O)c1nn(CCCCCF)c2ccccc12)C(C)C [(S)-5F-AMB-PINACA (10)]" endpoint_value=0.51
compound="C=CCCCn1cc(C(=O)N[C@@H](C(=O)OC)C(C)C)c2ccccc21 [(R)-AMB-4en-PICA (7)]" endpoint_value=0.74
compound="COC(=O)[C@@H](NC(=O)c1nn(Cc2ccc(F)cc2)c2ccccc12)C(C)(C)C [(S)-MDMB-FUBINACA (6)]" endpoint_value=1.41
compound="COC(=O)[C@@H](NC(=O)c1nn(CCCCCF)c2ccccc12)C(C)(C)C [(S)-5F-MDMB-PINACA (2)]" endpoint_value=1.11

Pending compound:
Exercise: Note log10 of half-life at 0.5 µM for the compound shown: C=CCCCn1cc(C(=O)N[C@H](C(=O)OC)C(C)C)c2ccccc21 [(S)-AMB-4en-PICA (7)]
Solution: 0.84

* * *

Tested on: pooled human cryopreserved hepatocytes (pHHeps)
test summary: Metabolic stability, pooled human cryopreserved hepatocyte incubations
condition label: pHHeps, 99x10^6 hepatocytes per gram liver
property: Hepatic extraction ratio, EH
The answer should be written as a number, with no unit following it.

compound="COC(=O)[C@@H](NC(=O)c1nn(Cc2ccc(F)cc2)c2ccccc12)C(C)(C)C [(S)-MDMB-FUBINACA (6)]" property="Hepatic extraction ratio, EH" endpoint_value=0.06
compound="C=CCCCn1cc(C(=O)N[C@@H](C(=O)OC)C(C)(C)C)c2ccccc21 [(R)-MDMB-4en-PICA (12)]" property="Hepatic extraction ratio, EH" endpoint_value=0.29
compound="COC(=O)[C@@H](NC(=O)c1cn(CC2CCCCC2)c2ccccc12)C(C)C [(S)-AMB-CHMICA (9)]" property="Hepatic extraction ratio, EH" endpoint_value=0.35
compound="CC(C)[C@H](NC(=O)c1nn(CC2CCCCC2)c2ccccc12)C(N)=O [(S)-AB-[…] (11)]" property="Hepatic extraction ratio, EH" endpoint_value=0.20
compound="C=CCCCn1cc(C(=O)N[C@@H](C(=O)OC)C(C)C)c2ccccc21 [(R)-AMB-4en-PICA (7)]" property="Hepatic extraction ratio, EH" endpoint_value=0.79

Exercise: Note Hepatic extraction ratio, EH for the compound shown: COC(=O)[C@@H](NC(=O)c1nn(CCCCCF)c2ccccc12)C(C)C [(S)-5F-AMB-PINACA (10)]
Solution: 0.86

Exercise: Note Hepatic extraction ratio, EH for the compound shown: COC(=O)[C@H](NC(=O)c1nn(CCCCCF)c2ccccc12)C(C)(C)C [(R)-5F-MDMB-PINACA (2)]
Solution: 0.37

Exercise: Note Hepatic extraction ratio, EH for the compound shown: C=CCCCn1nc(C(=O)N[C@@H](C(=O)OC)C(C)(C)C)c2ccccc21 [(R)-MDMB-4en-PINACA (5)]
Solution: 0.23

* * *

test summary: in vitro
condition label: human, plasma, pH 7.4
property: remaining at 3 h (%)
Express the result in % but write the number alone.

Exercise: Note remaining at 3 h for the molecule shown: CCN(CC)CCOC(=O)c1ccc(N)cc1
Solution: 0.03
